# Test system: Human betaherpesvirus 5
# Type: functional, cell-based
# Run Parameters: Human betaherpesvirus 5, AD169, HEL
pEC50: −log10 of the molar value.
The following molecules are shown together with reported pEC50 values.

- Smiles Input: "CSc1nc(NCCCCNc2ccnc3cc(Cl)ccc23)c(C#N)c(-c2ccccc2)n1"
  pEC50: "< 5.40"
- Smiles Input: "CSc1nc(NCCCCNc2ccnc3cc(Cl)ccc23)c(C#N)c(-c2ccc([N+](=O)[O-])cc2)n1"
  pEC50: "< 6.10"
- Smiles Input: "CSc1nc(NCCCCNc2ccnc3cc(Cl)ccc23)c(C#N)c(-c2ccc(C)cc2)n1"
  pEC50: "< 5.40"
- Smiles Input: "CSc1nc(NCCCCNc2ccnc3cc(Cl)ccc23)c(C#N)c(-c2cccc([N+](=O)[O-])c2)n1"
  pEC50: "< 6.10"
- Smiles Input: "CSc1nc(NCCCNc2ccnc3cc(Cl)ccc23)c(C#N)c(-c2ccccc2)n1"
  pEC50: "< 5.40"

====

# Experiment Description: Cytotoxicity against african green monkey Vero cells assessed as alteration of normal cell morphology by microscopic analysis
# Format: cell-based
# Run Parameters: chlorocebus sabaeus

- Smiles Input: "CSc1nc(NCCCNc2ccnc3cc(Cl)ccc23)c(C#N)c(-c2ccccc2)n1"
  Value Comparator: "="
  MCC [µM]: 100
- Smiles Input: "COc1cc(-c2nc(SC)nc(NCCCCNc3ccnc4cc(Cl)ccc34)c2C#N)cc(OC)c1OC"
  Value Comparator: "="
  MCC [µM]: 4
- Smiles Input: "NC(=O)c1ncn([C@@H]2O[C@H](CO)[C@@H](O)[C@H]2O)n1"
  Value Comparator: ">"
  MCC [µM]: 250
- Smiles Input: "CSc1nc(NCCCCNc2ccnc3cc(Cl)ccc23)c(C#N)c(-c2ccccc2)n1"
  Value Comparator: "="
  MCC [µM]: 20
- Smiles Input: "CSc1nc(-c2ccc([N+](=O)[O-])cc2)c(C#N)c(N2CCN(c3ccnc4cc(Cl)ccc34)CC2)n1"
  Value Comparator: "="
  MCC [µM]: 100

====

Parameter: EC50. Scope: all listed entries.
# System: Human alphaherpesvirus 1
# Assay type: functional, cell-based
# Run Parameters: Human alphaherpesvirus 1, KOS, HEL

- Compound: "CSc1nc(NCCCNc2ccnc3cc(Cl)ccc23)c(C#N)c(-c2ccccc2)n1"
  Test System: "Human alphaherpesvirus 1"
  EC50: "> 4 µM"
- Compound: "CSc1nc(-c2ccccc2)c(C#N)c(N2CCN(c3ccnc4cc(Cl)ccc34)CC2)n1"
  Test System: "Human alphaherpesvirus 1"
  EC50: "> 100 µM"
- Compound: "CSc1nc(-c2ccc([N+](=O)[O-])cc2)c(C#N)c(N2CCN(c3ccnc4cc(Cl)ccc34)CC2)n1"
  Test System: "Human alphaherpesvirus 1"
  EC50: "> 100 µM"
- Compound: "CSc1nc(OCCCNc2ccnc3cc(Cl)ccc23)c(C#N)c(-c2ccccc2)n1"
  Test System: "Human alphaherpesvirus 1"
  EC50: "> 0.8 µM"
- Compound: "CCN(CC)CCCC(C)Nc1ccnc2cc(Cl)ccc12 (stereo not given)"
  Test System: "Human alphaherpesvirus 1"
  EC50: "> 20 µM"

====

# Experiment Description: Selectivity index, ratio of IC50 for human HeLa cells to IC50 for chloroquine-resistant asexual intraerythrocytic stage of Plasmodium falciparum Dd2
# Format: toxicity, cell-based
# Run Parameters: read-out: Ratio IC50

- Smiles Input: "CSc1nc(-c2ccccc2)c(C#N)c(N2CCN(c3ccnc4cc(Cl)ccc34)CC2)n1"
  selectivity ratio: "> 1.1"
- Smiles Input: "CSc1nc(-c2ccc([N+](=O)[O-])cc2)c(C#N)c(N2CCN(c3ccnc4cc(Cl)ccc34)CC2)n1"
  selectivity ratio: 23.1
- Smiles Input: "CSc1nc(NCCCCNc2ccnc3cc(Cl)ccc23)c(C#N)c(-c2ccc([N+](=O)[O-])cc2)n1"
  selectivity ratio: 1.6
- Smiles Input: "CSc1nc(NCCCCNc2ccnc3cc(Cl)ccc23)c(C#N)c(-c2ccccc2)n1"
  selectivity ratio: 28.7
- Smiles Input: "CSc1nc(OCCCNc2ccnc3cc(Cl)ccc23)c(C#N)c(-c2ccccc2)n1"
  selectivity ratio: 16.3
- Smiles Input: "COc1cc(-c2nc(SC)nc(NCCCCNc3ccnc4cc(Cl)ccc34)c2C#N)cc(OC)c1OC"
  selectivity ratio: 37.9
- Smiles Input: "CSc1nc(NCCCNc2ccnc3cc(Cl)ccc23)c(C#N)c(-c2ccccc2)n1"
  selectivity ratio: 34.4
- Smiles Input: "CSc1nc(NCCCCNc2ccnc3cc(Cl)ccc23)c(C#N)c(-c2cccc([N+](=O)[O-])c2)n1"
  selectivity ratio: 19.7
- Smiles Input: "COc1ccc(-c2nc(SC)nc(NCCCCNc3ccnc4cc(Cl)ccc34)c2C#N)cc1"
  selectivity ratio: 2.2
- Smiles Input: "N#Cc1c(NCCCCNc2ccnc3cc(Cl)ccc23)nc(N2CCOCC2)nc1-c1ccccc1"
  selectivity ratio: 44
- Smiles Input: "COc1ccc(-c2nc(SC)nc(NCCCCNc3ccnc4cc(Cl)ccc34)c2C#N)cc1OC"
  selectivity ratio: 15.5
- Smiles Input: "CSc1nc(NCCCCNc2ccnc3cc(Cl)ccc23)c(C#N)c(-c2ccc(C)cc2)n1"
  selectivity ratio: 9.2

====

# System: Influenza A virus
# Experiment Description: microbe, parasite or virus in culture
# Run Parameters: H3N2, MDCK
pEC50: −log10 of the molar value.

- Smiles Input: "CSc1nc(NCCCCNc2ccnc3cc(Cl)ccc23)c(C#N)c(-c2ccc(C)cc2)n1"
  pEC50: "< 5.40"
- Smiles Input: "N#Cc1c(NCCCCNc2ccnc3cc(Cl)ccc23)nc(N2CCOCC2)nc1-c1ccccc1"
  pEC50: "< 5.40"
- Smiles Input: "CSc1nc(-c2ccc([N+](=O)[O-])cc2)c(C#N)c(N2CCN(c3ccnc4cc(Cl)ccc34)CC2)n1"
  pEC50: "< 4.00"
- Smiles Input: "COc1cc(-c2nc(SC)nc(NCCCCNc3ccnc4cc(Cl)ccc34)c2C#N)cc(OC)c1OC"
  pEC50: "< 6.10"
- Smiles Input: "CSc1nc(NCCCCNc2ccnc3cc(Cl)ccc23)c(C#N)c(-c2ccc([N+](=O)[O-])cc2)n1"
  pEC50: "< 6.10"
- Smiles Input: "NC(=O)c1ncn([C@@H]2O[C@H](CO)[C@@H](O)[C@H]2O)n1"
  pEC50: "5.05 to 5.16"
- Smiles Input: "COc1ccc(-c2nc(SC)nc(NCCCCNc3ccnc4cc(Cl)ccc34)c2C#N)cc1OC"
  pEC50: "< 5.40"
- Smiles Input: "CSc1nc(NCCCNc2ccnc3cc(Cl)ccc23)c(C#N)c(-c2ccccc2)n1"
  pEC50: "< 5.40"
- Smiles Input: "CSc1nc(OCCCNc2ccnc3cc(Cl)ccc23)c(C#N)c(-c2ccccc2)n1"
  pEC50: "< 6.10"

====

# Experiment Description: Cytotoxicity against MDCK cells assessed as alteration of normal cell morphology by microscopic analysis
# Format: cell-based, Canis lupus familiaris
# Run Parameters: dog

- Compound: "CSc1nc(NCCCCNc2ccnc3cc(Cl)ccc23)c(C#N)c(-c2cccc([N+](=O)[O-])c2)n1"
  Value Comparator: "="
  MCC / µM: 20
- Compound: "CSc1nc(NCCCCNc2ccnc3cc(Cl)ccc23)c(C#N)c(-c2ccc([N+](=O)[O-])cc2)n1"
  Value Comparator: "="
  MCC / µM: 4
- Compound: "CSc1nc(-c2ccccc2)c(C#N)c(N2CCN(c3ccnc4cc(Cl)ccc34)CC2)n1"
  Value Comparator: ">"
  MCC / µM: 100
- Compound: "CSc1nc(NCCCCNc2ccnc3cc(Cl)ccc23)c(C#N)c(-c2ccccc2)n1"
  Value Comparator: "="
  MCC / µM: 20
- Compound: "N#Cc1c(NCCCCNc2ccnc3cc(Cl)ccc23)nc(N2CCOCC2)nc1-c1ccccc1"
  Value Comparator: "="
  MCC / µM: 20
- Compound: "CSc1nc(NCCCNc2ccnc3cc(Cl)ccc23)c(C#N)c(-c2ccccc2)n1"
  Value Comparator: "="
  MCC / µM: 20
- Compound: "CSc1nc(OCCCNc2ccnc3cc(Cl)ccc23)c(C#N)c(-c2ccccc2)n1"
  Value Comparator: "="
  MCC / µM: 4
- Compound: "CCN(CC)CCCC(C)Nc1ccnc2cc(Cl)ccc12 (stereo not drawn)"
  Value Comparator: "="
  MCC / µM: 100
- Compound: "CSc1nc(-c2ccc([N+](=O)[O-])cc2)c(C#N)c(N2CCN(c3ccnc4cc(Cl)ccc34)CC2)n1"
  Value Comparator: ">"
  MCC / µM: 100
- Compound: "CSc1nc(NCCCCNc2ccnc3cc(Cl)ccc23)c(C#N)c(-c2ccc(C)cc2)n1"
  Value Comparator: "="
  MCC / µM: 20
- Compound: "COc1ccc(-c2nc(SC)nc(NCCCCNc3ccnc4cc(Cl)ccc34)c2C#N)cc1"
  Value Comparator: "="
  MCC / µM: 20
- Compound: "COc1ccc(-c2nc(SC)nc(NCCCCNc3ccnc4cc(Cl)ccc34)c2C#N)cc1OC"
  Value Comparator: "="
  MCC / µM: 20
- Compound: "COc1cc(-c2nc(SC)nc(NCCCCNc3ccnc4cc(Cl)ccc34)c2C#N)cc(OC)c1OC"
  Value Comparator: "="
  MCC / µM: 4

Source: ChEMBL document CHEMBL4000146
